Biological target: K-Ras(G12V) (Homo sapiens, UniProt P01116, G12V)
Construct: The G12V mutant K-Ras (amino acids 1-185) was recombinantly fused; GST (N, cleaved yes); made in house; host or cells: Escherichia coli BL21
Sequence (P01116 1-185 isoform P01116-2 G12V): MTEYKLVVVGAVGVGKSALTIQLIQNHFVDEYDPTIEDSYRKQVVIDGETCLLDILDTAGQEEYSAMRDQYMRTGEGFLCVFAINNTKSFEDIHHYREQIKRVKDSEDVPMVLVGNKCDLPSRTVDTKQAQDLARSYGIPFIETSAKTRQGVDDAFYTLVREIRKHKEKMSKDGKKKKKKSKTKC
Assay: Fluorescence anisotropy (FA) binding of FITC-labeled cyclic peptides to K-Ras
Settings: Table 2; FITC-labeled peptide; read-out: Binding affinity KD
pKd: −log10 of the molar value. Square brackets hold non-standard residues; d marks the D form. Peptide text beside a SMILES is read from it. * marks the point of attachment. FITC = O=C1OC2(c3ccc(O)cc3Oc3cc(O)ccc32)c2ccc(NC(=S)*)cc21; Phe(4-F) = N[C@@H](Cc1ccc(F)cc1)C(=O)O; d2Nal = N[C@H](Cc1ccc2ccccc2c1)C(=O)O; Benzoyl(3-Br) = O=C(c1cccc(Br)c1)*; Tle = CC(C)(C)[C@H](N)C(=O)O; X2 = O=C(C=Cc1ccc(Cl)cc1)*; Dap = NC[C@H](N)C(=O)O; Bn = c1ccc(C*)cc1
test readout: pKd

INSERT INTO assay_data (molecule, test_readout, modifier_sign, val) VALUES
  ('C[C@H]1NC(=O)[C@H](C(C)(C)C)NC(=O)[C@H](CNC(=O)C=Cc2ccc(Cl)cc2)NC(=O)[C@H](CCC(N)=O)NC(=O)[C@@H](CCCCN)NC(=O)[C@H](Cc2ccc(F)cc2)NC(=O)[C@H](CCCNC(=N)N)NC(=O)[C@@H](Cc2ccc3ccccc3c2)NC(=O)[C@H](CCCCNC(=S)Nc2ccc3c(c2)C(=O)OC32c3ccc(O)cc3Oc3cc(O)ccc32)NC(=O)[C@H](CCCNC(=N)N)NC(=O)[C@H](CCCNC(=N)N)NC1=O [Cyclorasin 9A28] (cyclo([Dap](X2)[Tle][dA]RRK(FITC)[d2Nal]R[Phe(4-F)][dK]Q))', 'pKd', '=', 6.80),
  ('C[C@H]1NC(=O)[C@H](C(C)(C)C)NC(=O)[C@H]([C@@H](C)OCc2ccccc2)NC(=O)[C@H](CCC(N)=O)NC(=O)[C@@H](CCCCN)NC(=O)[C@H](Cc2ccc(F)cc2)NC(=O)[C@H](CCCNC(=N)N)NC(=O)[C@@H](Cc2ccc3ccccc3c2)NC(=O)[C@H](CCCCNC(=S)Nc2ccc3c(c2)C(=O)OC32c3ccc(O)cc3Oc3cc(O)ccc32)NC(=O)[C@H](CCCNC(=N)N)NC(=O)[C@H](CCCNC(=N)N)NC1=O [Cyclorasin 9A26] (cyclo(K(FITC)[d2Nal]R[Phe(4-F)][dK]QT(Bn)[Tle][dA]RR))', 'pKd', '=', 6.15),
  ('C[C@H]1NC(=O)[C@H](C(C)(C)C)NC(=O)[C@H](CNC(=O)c2cccc(Br)c2)NC(=O)[C@H](CCC(N)=O)NC(=O)[C@@H](CCCCN)NC(=O)[C@H](Cc2ccc(F)cc2)NC(=O)[C@H](CCCNC(=N)N)NC(=O)[C@@H](Cc2ccc3ccccc3c2)NC(=O)[C@H](CCCCNC(=S)Nc2ccc3c(c2)C(=O)OC32c3ccc(O)cc3Oc3cc(O)ccc32)NC(=O)[C@H](CCCNC(=N)N)NC(=O)[C@H](CCCNC(=N)N)NC1=O [Cyclorasin 9A30] (cyclo([Dap](Benzoyl(3-Br))[Tle][dA]RRK(FITC)[d2Nal]R[Phe(4-F)][dK]Q))', 'pKd', '=', 6.19),
  ('C[C@H]1NC(=O)[C@H](C(C)(C)C)NC(=O)[C@H](Cc2c[nH]c3ccccc23)NC(=O)[C@H](CCC(N)=O)NC(=O)[C@@H](CCCCNC(=O)C=Cc2ccc(Cl)cc2)NC(=O)[C@H](Cc2ccc(F)cc2)NC(=O)[C@H](CCCNC(=N)N)NC(=O)[C@@H](Cc2ccc3ccccc3c2)NC(=O)[C@H](CCCCNC(=S)Nc2ccc3c(c2)C(=O)OC32c3ccc(O)cc3Oc3cc(O)ccc32)NC(=O)[C@H](CCCNC(=N)N)NC(=O)[C@H](CCCNC(=N)N)NC1=O [Cyclorasin 9A34] (cyclo(K(FITC)[d2Nal]R[Phe(4-F)][dK](X2)QW[Tle][dA]RR))', 'pKd', '<', 4.70);
